# Tested On: HDAC6 enzyme (Homo sapiens, UniProt Q9UBN7)
# Construct: transducing full length HDAC6 gene into Sf-9 insect cells; GST; purchased SignalChem; host or cells: Sf-9 insect cells
# Sequence (Q9UBN7 whole entry): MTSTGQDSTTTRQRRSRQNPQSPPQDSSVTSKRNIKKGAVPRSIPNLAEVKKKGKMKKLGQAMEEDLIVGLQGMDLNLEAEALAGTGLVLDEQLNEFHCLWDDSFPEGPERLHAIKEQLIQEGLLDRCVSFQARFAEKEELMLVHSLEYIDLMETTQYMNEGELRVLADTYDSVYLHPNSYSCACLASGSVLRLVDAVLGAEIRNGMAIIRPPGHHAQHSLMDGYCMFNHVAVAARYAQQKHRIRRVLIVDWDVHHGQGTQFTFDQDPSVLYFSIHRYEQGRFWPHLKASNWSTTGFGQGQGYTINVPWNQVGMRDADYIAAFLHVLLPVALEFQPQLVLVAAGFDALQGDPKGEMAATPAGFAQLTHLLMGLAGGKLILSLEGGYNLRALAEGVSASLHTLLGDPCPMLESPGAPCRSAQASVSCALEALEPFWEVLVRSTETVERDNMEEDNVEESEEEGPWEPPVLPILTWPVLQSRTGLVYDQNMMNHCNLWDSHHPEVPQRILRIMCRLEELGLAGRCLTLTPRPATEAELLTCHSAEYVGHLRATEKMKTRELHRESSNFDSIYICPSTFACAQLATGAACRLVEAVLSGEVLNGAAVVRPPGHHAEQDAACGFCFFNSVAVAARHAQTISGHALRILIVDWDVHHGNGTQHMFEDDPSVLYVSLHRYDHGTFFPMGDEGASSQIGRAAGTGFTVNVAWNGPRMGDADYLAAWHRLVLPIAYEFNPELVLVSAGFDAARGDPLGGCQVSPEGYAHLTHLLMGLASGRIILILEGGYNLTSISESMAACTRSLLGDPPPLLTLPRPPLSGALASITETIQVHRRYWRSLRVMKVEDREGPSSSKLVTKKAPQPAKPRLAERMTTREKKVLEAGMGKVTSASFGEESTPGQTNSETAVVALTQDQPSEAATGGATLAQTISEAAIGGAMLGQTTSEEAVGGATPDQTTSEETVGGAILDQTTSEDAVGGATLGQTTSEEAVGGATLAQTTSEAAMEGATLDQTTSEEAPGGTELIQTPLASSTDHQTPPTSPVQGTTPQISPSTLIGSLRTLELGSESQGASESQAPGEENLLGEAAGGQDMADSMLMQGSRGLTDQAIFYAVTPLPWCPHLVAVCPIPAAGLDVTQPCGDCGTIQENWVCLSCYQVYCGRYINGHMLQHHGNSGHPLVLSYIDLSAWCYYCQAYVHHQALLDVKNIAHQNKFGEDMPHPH
# Assay: HDAC6 enzyme inhibitory activity (HDAC-Glo I/II Assay kit)
# Type: biochemical
# Test Parameters: 10 μM; wells without enzyme = 100% inhibition; read-out: HDAC6 inhibitory rate (%) (10 μM)
Below: a set of entries, each annotated with reported inhibition at 10 µM.
Give the value, in units of %, as a plain number.

Output measured inhibition at 10 µM for this item: O=C1c2cc(-c3nnc(C(F)F)o3)cnc2CN1[C@@H]1CCC(F)(F)C[C@H]1NC(=O)C(F)(F)C(F)(F)F [Example 640]
100

State its inhibition at 10 µM for this compound: O=C1c2cc(-c3nnc(C(F)F)o3)ccc2CN1c1ccc(F)cc1C1CCN(C(=O)C(F)(F)C(F)(F)F)CC1 [Example 533]
98

* * *

# Tested On: HDAC6 enzyme (Homo sapiens)
# Construct: transducing full length HDAC6 gene into Sf-9 insect cells; GST; purchased SignalChem; host or cells: Sf-9 insect cells
# Assay: HDAC6 enzyme inhibitory activity (HDAC-Glo I/II Assay kit)
# Type: biochemical
# Test Parameters: 10 μM; wells without enzyme = 100% inhibition; read-out: HDAC6 inhibitory rate (%) (10 μM)
Measured Attribute: inhibition at 10 µM (%)
Field format: number, assumed %, no unit text.

>>> numeric_value("O=C1c2cc(-c3nnc(C(F)F)o3)cc(F)c2CN1[C@@H]1CCCC[C@H]1NS(=O)(=O)CC(F)(F)F [Example 244]")
101
>>> numeric_value("O=C1c2cc(-c3nnc(C(F)F)o3)cnc2CN1Cc1nccs1 [Example 440]")
97
>>> numeric_value("O=C1c2cc(-c3nnc(C(F)F)o3)ccc2CN1c1ccc(F)cc1-n1cc(C2CC2)cn1 [Example 486]")
100
>>> numeric_value("CC(F)(F)C(=O)N[C@@H]1CCCC[C@H]1N1Cc2c(F)cc(-c3nnc(C(F)F)o3)cc2C1=O [Example 184]")
102
>>> numeric_value("O=C1c2cc(-c3nnc(C(F)F)o3)cnc2CN1Cc1c(F)cccc1F [Example 329]")
99

Report inhibition at 10 µM for O=C1c2cc(-c3nnc(C(F)F)o3)ccc2CN1[C@@H]1CCCC[C@@H]1NC(=O)C(F)(F)C(F)(F)F [Example 261]
99

Give inhibition at 10 µM for O=C1c2cc(-c3nnc(C(F)F)o3)ccc2CN1[C@@H]1CCCC[C@H]1O [Example 220]
94

Given the compound O=C1c2cc(-c3nnc(C(F)F)o3)cnc2CN1Cc1ccccc1 [Example 139] , write its reported inhibition at 10 µM.
100

* * *

Measured inhibition at 10 µM, listed per entry for reference.
# Tested On: HDAC6 enzyme (Homo sapiens, UniProt Q9UBN7)
# Construct: transducing full length HDAC6 gene into Sf-9 insect cells; GST; purchased SignalChem; host or cells: Sf-9 insect cells
# Assay: HDAC6 enzyme inhibitory activity (HDAC-Glo I/II Assay kit)
# Format: biochemical
# Test Parameters: 10 μM; wells without enzyme = 100% inhibition; read-out: HDAC6 inhibitory rate (%) (10 μM)
Number in %, nothing else.

>>> numeric_value("CC(C)(C)OC(=O)N1CCOC[C@@H]1CN1Cc2c(F)cc(-c3nnc(C(F)F)o3)cc2C1=O [Example 168]")
100
>>> numeric_value("O=C1c2cc(-c3nnc(C(F)F)o3)ccc2CN1c1ccccc1-c1cccc(F)c1 [Example 278]")
99
>>> numeric_value("O=C1c2cc(-c3nnc(C(F)F)o3)ccc2CN1c1ccccc1-c1cncc(C(F)(F)F)c1 [Example 297]")
98

Now consider a different compound.
Answer with the recorded inhibition at 10 µM for the compound listed here: N#CC1(C(=O)N[C@@H]2CCCC[C@H]2N2Cc3ccc(-c4nnc(C(F)F)o4)cc3C2=O)CCC1 [Example 78]
100
